Give measured pIC50 for each item. Keep answers brief.
target: androgen receptor (AR) (Homo sapiens, UniProt P10275, T878A); construct: LNCaP cells were transiently transfected with the PSA (6.1 kb)-luciferase reporter for 24 h; endogenous in cells; host or cells: LNCaP; assay: Androgen-induced PSA (6.1 kb)-luciferase reporter assay in LNCaP cells; assay type: cell-based; conditions: LNCaP cells transfected with PSA (6.1 kb)-luciferase reporter, R1881 1 nM, 24 h; read-out: PSA-Luc IC50 Range
Sequence (P10275 whole entry T878A): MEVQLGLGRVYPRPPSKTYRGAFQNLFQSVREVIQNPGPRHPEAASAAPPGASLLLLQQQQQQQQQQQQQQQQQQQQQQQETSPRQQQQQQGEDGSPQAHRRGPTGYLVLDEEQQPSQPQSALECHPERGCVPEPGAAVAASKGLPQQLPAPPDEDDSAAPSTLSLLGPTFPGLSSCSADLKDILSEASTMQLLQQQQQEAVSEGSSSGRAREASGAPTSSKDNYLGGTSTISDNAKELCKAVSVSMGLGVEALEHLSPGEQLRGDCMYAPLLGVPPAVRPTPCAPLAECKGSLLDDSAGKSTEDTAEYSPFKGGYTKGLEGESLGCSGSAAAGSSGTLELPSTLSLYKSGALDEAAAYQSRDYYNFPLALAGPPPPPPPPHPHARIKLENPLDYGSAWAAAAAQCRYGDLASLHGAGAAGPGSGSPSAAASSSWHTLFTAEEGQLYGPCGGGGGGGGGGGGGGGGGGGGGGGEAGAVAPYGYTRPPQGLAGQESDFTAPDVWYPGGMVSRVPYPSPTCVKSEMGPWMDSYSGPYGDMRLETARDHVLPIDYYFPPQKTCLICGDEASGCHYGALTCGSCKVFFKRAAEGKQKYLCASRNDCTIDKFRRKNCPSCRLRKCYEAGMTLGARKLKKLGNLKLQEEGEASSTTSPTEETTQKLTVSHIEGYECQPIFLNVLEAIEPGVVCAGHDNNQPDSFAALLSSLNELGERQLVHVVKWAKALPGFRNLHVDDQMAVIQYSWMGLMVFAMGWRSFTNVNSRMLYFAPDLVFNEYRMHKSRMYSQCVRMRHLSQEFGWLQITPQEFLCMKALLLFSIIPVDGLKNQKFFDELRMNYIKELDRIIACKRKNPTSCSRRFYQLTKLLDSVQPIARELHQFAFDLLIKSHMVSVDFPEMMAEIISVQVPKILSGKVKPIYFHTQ
pIC50: −log10 of the molar value.

Request: Given the entry Cc1cnc(NS(C)(=O)=O)nc1COc1ccc(C(C)(C)c2cc(Cl)c(OCCCl)c(C#N)c2)cc1 [Compound A122] , what pIC50 was observed with androgen receptor (AR) (Homo sapiens, UniProt P10275, T878A)?
Result: > 6.30

Request: Please do the same for CC(C)(c1ccc(OCc2coc(S(C)(=O)=O)c2)cc1)c1cc(Cl)c(OCCCl)c(C#N)c1 [Compound A208] as well.
Result: > 6.30

Request: Moving on to CC(C)(c1ccc(OCc2cc(CN)nc(NS(C)(=O)=O)n2)cc1)c1cc(Cl)c(OCCCl)c(C#N)c1 [Compound A164]
Result: 5.70 to 6.30

Request: Here is the next molecule: CC(C)(c1ccc(OCc2[nH]cnc2S(C)(=O)=O)cc1)c1cc(Cl)c(OCCCl)c(Cl)c1 [Compound A71]
Result: 5.70 to 6.30

Request: Same thing, different molecule: CC(C)(c1ccc(OCc2ocnc2S(C)(=O)=O)cc1)c1cnc(NCCCl)nc1 [Compound A58]
Result: < 5.70

Request: Same again, this time with CC(C)(c1ccc(CCc2ccnc(N)n2)cc1)c1cc(Cl)c(OCCCl)c(C#N)c1 [Compound A121]
Result: 5.70 to 6.30

Request: Thanks! And CC(C)(c1ccc(OCc2ncc(S(C)(=O)=O)o2)cc1)c1cc(Cl)c(OCCCl)c(Cl)c1 [Compound A66] ?
Result: 5.70 to 6.30
